# measured-target: T1, human Kv1.3 (huKv1.3) (Homo sapiens, UniProt P22001)
# T1 construct: host or cells: CHO
# T1 sequence (P22001 whole entry): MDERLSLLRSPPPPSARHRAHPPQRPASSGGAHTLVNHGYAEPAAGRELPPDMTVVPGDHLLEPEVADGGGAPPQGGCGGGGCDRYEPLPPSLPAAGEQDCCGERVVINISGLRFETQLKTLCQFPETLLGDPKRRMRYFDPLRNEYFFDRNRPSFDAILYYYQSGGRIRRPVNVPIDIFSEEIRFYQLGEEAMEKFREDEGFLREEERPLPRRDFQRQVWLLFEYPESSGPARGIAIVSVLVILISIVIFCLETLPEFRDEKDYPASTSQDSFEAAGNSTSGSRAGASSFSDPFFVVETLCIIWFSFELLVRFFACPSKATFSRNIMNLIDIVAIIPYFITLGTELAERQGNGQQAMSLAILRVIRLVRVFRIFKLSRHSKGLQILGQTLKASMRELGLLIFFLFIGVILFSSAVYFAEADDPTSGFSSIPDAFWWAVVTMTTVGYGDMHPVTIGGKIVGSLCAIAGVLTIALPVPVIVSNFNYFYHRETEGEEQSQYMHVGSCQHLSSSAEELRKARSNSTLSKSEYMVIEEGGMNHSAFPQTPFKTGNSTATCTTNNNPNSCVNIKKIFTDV
# method-notes: QPatch automated patch-clamp, CHO cells stably expressing human Kv1.3 (Examples 19-21)
# Assay type: cell-based
# study-conditions: huKv1.3, four-point curves of FIG. 32, Table E19; read-out: IC50
attribute-measured: IC50 (nM)
// units = nM; emit number, no label

input: Would you kindly share the measured IC50 for KB_A12_Vm24: Vm24 in VL CDR2 of KB_A12, IgG (antibody, V domains shown) VH: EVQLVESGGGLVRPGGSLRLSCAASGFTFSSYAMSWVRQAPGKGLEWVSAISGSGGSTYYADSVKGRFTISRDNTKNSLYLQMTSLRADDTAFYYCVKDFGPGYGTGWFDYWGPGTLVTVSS VL: QSVLTQPPSVSEAPRQRVTITCSGSSSNIGNNAVNWYQQLPGKAPKLLIYAAGRAAAISCVGSPECPPKCRAQGCKNGKCMNRKCKCYYCANSGVSDRFSAAKSGTSASLAINGLRSEDEADYYCAAWDDSLNGYVFGTGTKLTVLG ?
output: 16
